Record form. Attribute: protein stability index. Fill in for each entry.
- assayRemarks: protein stability index of a GFP-peptide fusion (yeast GPS) (PSI 1-4); higher = more stable; sorted into four equal gates, so the index is relative within each strain
- condition: san1∆

Each of the following entries comes with a recorded value; kindly state protein stability index for each.
1. MSAAPVQDKDTLSNAER [GAL11]
2. QSTNLNRSAKNSKNDSA [YCS4]
3. LQCISQINQGVPSAKPL [SNF11]

[3.34, 2.67, 2.5]

Each of the following entries comes with a recorded value; kindly state protein stability index for each.
1. TFQRVCQYMVACVPLLP [RPN1]
2. MTVAHLIECLLSKVAAL [RPB2]

1: 1.86; 2: 1.84

Each of the following entries comes with a recorded value; kindly state protein stability index for each.
1. LHKFLTKWGLINYQVDS [SWI3]
2. LQRTILNRIINHMLIDS [RGR1]
3. KNRSNRKRFHSQSKGTV [YOR098C/NUP1]
4. FLDSVHKQGSSYVAVLG [POP7]
5. TAFATEFFVQVLTHESL [DLS1]
6. KLDASKKQQAALTNELN [YIL149C/MLP2]
7. PIGRDGKLAKPRQLHNT [RPB2]

[2.03, 2.21, 2.89, 2.38, 2.73, 2.68, 2.67]

Each of the following entries comes with a recorded value; kindly state protein stability index for each.
1. ESLILKWDNQSASRAKN [RGR1]
2. SRKQKIAKTFTVDVSSP [RPL22A]

2.9
2.95
